Target: Peroxisome proliferator-activated receptor delta (Homo sapiens) (UniProt Q03181)
Sequence (whole entry): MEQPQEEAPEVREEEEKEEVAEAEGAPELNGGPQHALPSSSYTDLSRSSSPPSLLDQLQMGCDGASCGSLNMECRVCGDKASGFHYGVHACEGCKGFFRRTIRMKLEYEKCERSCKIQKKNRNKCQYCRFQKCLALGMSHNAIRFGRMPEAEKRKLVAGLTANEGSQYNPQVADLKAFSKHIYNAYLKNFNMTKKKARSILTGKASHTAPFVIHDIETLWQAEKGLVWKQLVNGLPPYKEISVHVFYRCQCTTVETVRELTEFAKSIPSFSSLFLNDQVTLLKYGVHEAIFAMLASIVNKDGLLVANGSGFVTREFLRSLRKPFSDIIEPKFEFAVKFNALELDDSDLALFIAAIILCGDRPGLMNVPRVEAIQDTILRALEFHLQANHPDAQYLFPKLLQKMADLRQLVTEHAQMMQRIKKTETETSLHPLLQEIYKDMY
Assay: Agonist activity at human PPARdelta expressed in CV1 cells at 10 uM by transactivation assay
Assay type: functional, cell-based
Details: CV-1
observable: Activity (%)
One number for each entry, in %.

Examples from the recorded data:
> print(dat)
                         chemical.structure                       experimental.system  measured
1  Cc1ccccc1-c1nc(CCCC[C@H]2CO[C@@](C)(C(=O)O)OC2)c(C)o1  Peroxisome proliferator-activated receptor delta (Homo sapiens) (UniProt Q03181)         5
2  Cc1ccc(-c2nc(CCCC[C@H]3CO[C@@](C)(C(=O)O)OC3)c(C)o2)c(C)c1  Peroxisome proliferator-activated receptor delta (Homo sapiens) (UniProt Q03181)        16
3  Cc1ccc(-c2nc(CCCC[C@H]3CO[C@@](C)(C(=O)O)OC3)c(C)o2)cc1C  Peroxisome proliferator-activated receptor delta (Homo sapiens) (UniProt Q03181)         0
4  Cc1oc(-c2ccccc2)nc1CCCC[C@H]1CO[C@@](C)(C(=O)O)OC1  Peroxisome proliferator-activated receptor delta (Homo sapiens) (UniProt Q03181)         0
5  Cc1ccc(-c2nc(CCCC[C@H]3CO[C@@](C)(C(=O)O)OC3)c(C)o2)cc1F  Peroxisome proliferator-activated receptor delta (Homo sapiens) (UniProt Q03181)        25

For every item below, please supply its Activity.
1. COc1ccc(-c2nc(CCCC[C@H]3CO[C@@](C)(C(=O)O)OC3)c(C)o2)cc1
2. Cc1oc(-c2ccc(C(F)(F)F)cc2)nc1CCCC[C@H]1CO[C@@](C)(C(=O)O)OC1

Output line:
1. 20
2. 34

Please give Activity, item by item, for the list that follows.
1. Cc1ccc(-c2nc(CCCC[C@H]3CO[C@@](C)(C(=O)O)OC3)c(C)n2C)cc1
2. CCc1ccc(-c2nc(CCCC[C@H]3CO[C@@](C)(C(=O)O)OC3)c(C)o2)cc1
3. Cc1ccc(-c2nc(CCCC[C@H]3CO[C@@](C)(C(=O)O)OC3)c(C)s2)cc1

Output line:
[0, 0, 0]
